Every entry's value here was drawn from patent US6353089B1.

target: HLA-A2 molecules (Homo sapiens, UniProt P04439, D140Y/D185E/D98H/E176V/E277Q/G131W/G231S/I119V/I121R/I166T/I218V/L300P/L318F/N151K/N90K/P208A/P217A/Q86G/Q94H/R138H/R169H/T345S); construct: endogenous in cells; host or cells: 174 CEM.T2 (T2) cells; experiment: HLA-A2 binding (stabilization) assay on T2 cells, mean fluorescence ratio; settings: peptide 0.1 mM, overnight 37° C., BB7.2 staining, MFR greater than 1.5 indicates binding to HLA-A2
The entries below are paired with their reported MFR (mean fluorescence ratio).
Form rule: numeric answer, no unit written next to it.

{"sequence-chain": "TLVEVTLGEV [Peptide M3-44.53]", "MFR (mean fluorescence ratio)": 3.5}

Now consider the entry below.
Lookup: I would be grateful if you could share the reported MFR (mean fluorescence ratio) for IMPKAGLLI [Peptide M3-195.203] .
Found: 2.37
